molecular target: human HPK1 (MAP4K1) (Homo sapiens (Human)); experiment: HPK1 IC50 Assay (TR-FRET peptide phosphorylation); assay type: biochemical; details: recombinant HPK1 kinase domain 0.15 nM, 10 μM ATP, 1 μM STK S1 peptide; geometric mean of multiple experiments
Sequence (Q92918 17-274): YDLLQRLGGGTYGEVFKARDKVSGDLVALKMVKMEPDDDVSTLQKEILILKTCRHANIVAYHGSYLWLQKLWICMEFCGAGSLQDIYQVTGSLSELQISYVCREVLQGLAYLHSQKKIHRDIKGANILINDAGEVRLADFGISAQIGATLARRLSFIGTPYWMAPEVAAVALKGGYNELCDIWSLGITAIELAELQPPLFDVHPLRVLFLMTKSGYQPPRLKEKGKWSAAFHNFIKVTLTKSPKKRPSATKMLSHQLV
property label: IC50 (pM)

compound	target under test	measurement units	IC50
CC(=O)N1CCC2(CC1)C(=O)N([C@H]1C[C@@H](N3CCCCC3)C1)c1cc(-c3cc4ncn(C(C)C)c4c(Nc4ccc(C)c(C(=O)NCCO)c4)n3)ccc12	human HPK1 (MAP4K1) (Homo sapiens (Human))	pM	100
CNC(=O)c1cc(Nc2nc(-c3ccc4c(c3)N([C@H]3C[C@@H](N5C[C@H]6CC[C@@H]5C6)C3)C(=O)C43CCN(C(=O)C45CC(C4)C5)CC3)cc3ncn(C4CC4)c23)ccc1C	human HPK1 (MAP4K1) (Homo sapiens (Human))	pM	80
CNC(=O)c1cc(Nc2nc(-c3ccc4c(c3)N([C@H]3C[C@@H](N5CCCCC5)C3)C(=O)C43CCOCC3)cc3ncn(C(C)C)c23)ccc1C	human HPK1 (MAP4K1) (Homo sapiens (Human))	pM	100
Cc1c(C(=O)NC2(C(F)F)CC2)cc(Nc2nc(-c3cnc4c(c3)N([C@H]3C[C@@](C)(N5CC6CCC(C6)C5)C3)C(=O)C4(C)C)cc3ncn(C(C)C)c23)c(F)c1F	human HPK1 (MAP4K1) (Homo sapiens (Human))	pM	100
CC(C)n1cnc2cc(-c3cnc4c(c3)N(C3CC(C)(N5CCC6C[C@@H]6C5)C3)C(=O)C4(C)C)nc(Nc3cc(C(=O)NC4(C(F)F)CC4)c(Cl)c(F)c3F)c21 (stereo partly drawn) [Example 261]	human HPK1 (MAP4K1) (Homo sapiens (Human))	pM	90

A. CNC(=O)c1cc(Nc2nc(-c3ccc4c(c3)N([C@H]3C[C@@H](N5CCCCC5)C3)C(=O)C43CCN(C(=O)C45CC(F)(C4)C5)CC3)cc3ncn(C4CC4)c23)ccc1C
B. Cc1c(C(=O)NC2(C(F)F)CC2)cc(Nc2nc(-c3cnc4c(c3)N([C@H]3C[C@@](C)(N5CCCCC5)C3)C(=O)C4(C)C)cc3ncn(C(C)C)c23)c(F)c1F
Exam item: Field: entry with larger IC50 (options A / B ). Kindly state the label of the option you pick.
Marked response: B
(B: 100 pM, A: 60 pM)
